Quick reference: inhibition at 10 µM of the listed items.
biological target: Human recombinant 5-HT7 receptor (Homo sapiens); construct: expressed in transfected cells; host or cells: CHO cells (membrane preparation); assay: Binding affinity for 5-HT7 serotonin receptor ([3H]LSD radioligand binding); conditions: 10 μM test compound; 1 nM [3H]LSD; human recombinant 5-HT7 receptor expressed in CHO cells
Endpoint Label: inhibition at 10 µM

INSERT INTO measurements (structure_notation, endpoint_label, recorded_result) VALUES
  ('Cc1cc(C)cc(N2CCN(Cc3ccccc3-c3ccccc3)CC2)c1', 'inhibition at 10 µM', '84%'),
  ('FC(F)(F)c1cccc(N2CCN(Cc3ccccc3-c3ccccc3)CC2)c1', 'inhibition at 10 µM', '95.9%'),
  ('Cc1cccc(N2CCN(Cc3cccc(-c4ccccc4)c3)CC2)c1', 'inhibition at 10 µM', '95.4%'),
  ('Fc1cccc(N2CCN(Cc3cccc(-c4ccccc4)c3)CC2)c1', 'inhibition at 10 µM', '91.3%'),
  ('Cc1ccc(C)c(N2CCN(Cc3ccccc3-c3ccccc3)CC2)c1', 'inhibition at 10 µM', '93.8%'),
  ('c1ccc(-c2ccccc2CN2CCN(c3ccccc3)CC2)cc1', 'inhibition at 10 µM', '59.7%'),
  ('COc1ccccc1N1CCN(Cc2ccccc2-c2ccccc2)CC1', 'inhibition at 10 µM', '95.1%'),
  ('CC(C)c1ccccc1N1CCN(Cc2ccccc2-c2ccccc2)CC1', 'inhibition at 10 µM', '87%'),
  ('Clc1ccccc1N1CCN(Cc2cccc(-c3ccccc3)c2)CC1', 'inhibition at 10 µM', '88.3%'),
  ('c1ccc(-c2ccccc2CN2CCN(c3ccccc3-c3ccccc3)CC2)cc1', 'inhibition at 10 µM', '93.8%'),
  ('CCOc1ccccc1N1CCN(Cc2ccccc2-c2ccccc2)CC1', 'inhibition at 10 µM', '86.2%');

---

biological target: Human recombinant 5-HT7 receptor (Homo sapiens, UniProt P34969); test: Binding affinity for 5-HT7 serotonin receptor ([3H]LSD radioligand binding); conditions: 1 nM [3H]LSD; human recombinant 5-HT7 receptor expressed in CHO cells; 25° C., 90 minutes
Sequence (P34969 whole entry): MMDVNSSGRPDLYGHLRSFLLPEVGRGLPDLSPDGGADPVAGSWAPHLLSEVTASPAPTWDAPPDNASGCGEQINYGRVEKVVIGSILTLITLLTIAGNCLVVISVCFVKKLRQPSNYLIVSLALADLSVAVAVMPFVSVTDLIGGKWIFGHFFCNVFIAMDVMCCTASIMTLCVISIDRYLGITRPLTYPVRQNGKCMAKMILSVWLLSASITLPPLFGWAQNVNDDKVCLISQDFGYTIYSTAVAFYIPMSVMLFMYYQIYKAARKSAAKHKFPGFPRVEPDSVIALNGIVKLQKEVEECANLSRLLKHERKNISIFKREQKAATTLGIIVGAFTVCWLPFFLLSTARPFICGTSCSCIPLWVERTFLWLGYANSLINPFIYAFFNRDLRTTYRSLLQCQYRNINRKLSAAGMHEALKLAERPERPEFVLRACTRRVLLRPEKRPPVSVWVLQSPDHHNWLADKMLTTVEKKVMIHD
Endpoint Label: Ki (nM)

INSERT INTO assay_data (structure_notation, endpoint_label, recorded_result) VALUES
  ('CC(C)c1ccccc1N1CCN(Cc2ccccc2-c2ccccc2)CC1', 'Ki', 274),
  ('c1ccc(-c2ccccc2CN2CCN(c3ccccc3-c3ccccc3)CC2)cc1', 'Ki', 256),
  ('c1ccc(-c2ccccc2CN2CCN(c3ccccc3)CC2)cc1', 'Ki', 537),
  ('CCOc1ccccc1N1CCN(Cc2ccccc2-c2ccccc2)CC1', 'Ki', 192),
  ('Cc1cc(C)cc(N2CCN(Cc3ccccc3-c3ccccc3)CC2)c1', 'Ki', 367);
